Assay: blood-stage malaria parasite viability loss – strain 3D7, DAPI fluorescence, 100 nL, primary screen (AID 1184);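 note: parasites grown inside human red blood cells in medium with human serum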
Conditions: P. falciparum 3D7 growth, 3 d, higher = more signal

# COMPOUND, z-score
records = [
    ("CCCC[C@H]1C[C@@H]1[C@@H]1N(C(C)=O)[C@H](c2cccc(OC)c2)CC12CC2", -0.313),
    ("C=CCC(OC(C)=O)[C@@H]1[C@@H](N(Cc2cccc3ccccc23)C(=O)Cc2ccc(OC)cc2)c2cc(OCCCO)ccc2N1C(=O)Cc1ccc2ccccc2c1 (stereo partly specified)", -1.91),
    ("COc1ccc([Si](C)(C)[C@@H]2[C@@H](CC(=O)N3CCC[C@H]3CO)O[C@]3(C(=O)N(Cc4ccc(N5CCOC5=O)cc4)c4ccccc43)[C@H]2C)cc1", 0.309),
    ("C=CCOC(=O)[C@@H]1[C@H]2C(=O)O[C@H](c3ccccc3)[C@H](c3ccccc3)N2[C@H](c2ccc(OCCOC(=O)[C@H]3C[C@H]4C(=O)N5CCC[C@H]5C(=O)N4[C@H]3c3cccc(OCCO)c3)cc2)[C@@]12C(=O)Nc1ccc(I)cc12", -0.441),
    ("NC(=O)N1C(=O)C2C(C1=O)C1C=C(CCCO)C2C(c2ccc(CN3CCCC3)cc2)N1Cc1sc2ccccc2c1Cl (stereo unspecified)", -0.44),
    ("COCCOC(=O)N1C(=O)[C@@]2(c3cc(C#CCC(C(=O)OC)C(=O)OC)ccc31)[C@H](C(N)=O)[C@H]1C(=O)O[C@H](c3ccccc3)[C@H](c3ccccc3)N1[C@@H]2c1ccc(O)cc1", -2.1),
]

---

Entries and their composite z-score values follow.
Molecular target: Dihydroorotate dehydrogenase (quinone), mitochondrial (Plasmodium falciparum (isolate 3D7))
Assay: inhibition of P. falciparum DHODH – biochemical, C-terminal His tag, absorbance 600 nm, primary screen (AID 1175);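 note: recombinant parasite enzyme with a five histidine tag at its C terminus; test concentration not given here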
Conditions: PfDHODH enzyme, DCIP absorbance 600 nm; higher = more signal, called active from +8 up or from −8 down
Calls of active or inactive are those of the source.

# COMPOUND, composite z-score
records = [
    ("NC(=O)N1C(=O)C2C(C1=O)C1C=C(CCCO)C2C(c2ccc(CN3CCCC3)cc2)N1Cc1cc2c(cc1Br)OCO2 (configuration not stated)", "0.0032 (inactive)"),
    ("NC(=O)N1C(=O)C2C(C1=O)C1C=C(CCCO)C2C(C2CC2)N1Cc1sc2ccccc2c1Cl (configuration not stated)", "-0.744 (inactive)"),
    ("COc1ccc([Si](C)(C)[C@@H]2[C@@H](CC(=O)N3Cc4ccccc4C[C@H]3CO)O[C@]3(C(=O)N(Cc4ccc(N5CCOC5=O)cc4)c4ccccc43)[C@H]2C)cc1", "-0.836 (inactive)"),
    ("COc1cc(C(O)C2C=CC3C(=O)N(c4ccccc4)C(=O)C3N2Nc2ccccc2)cc(OC)c1OC (configuration not stated)", "0.484 (inactive)"),
    ("CCOC(=O)C1=CC[C@@H](c2ccc(OC)cc2)N(S(=O)(=O)c2ccc(C)cc2)[C@H]1CC", "-1.04 (inactive)"),
    ("O=C(NCc1ccccc1)[C@@H]1c2ccccc2C(=O)N(Cc2cc(C(F)(F)F)cc(C(F)(F)F)c2)[C@H]1c1ccc(CO)cc1", "0.819 (inactive)"),
    ("Cc1ccc(S[C@]2(C(=O)NC(C)C)CC(=O)N(C3CCCCC3)[C@@H]2c2ccc(CO)cc2I)cc1", "0.62 (inactive)"),
]

# credit: PubChem BioAssay
